Below, each entry is listed with its recorded koff.
target: T1, human transferrin receptor (recombinant, for surface plasmon resonance) (human, UniProt P02786 89-760); assay: SPR 25C
T1 construct: also called huTfR; human transferrin receptor-biotinylated
T1 sequence (P02786 89-760 limits assumed): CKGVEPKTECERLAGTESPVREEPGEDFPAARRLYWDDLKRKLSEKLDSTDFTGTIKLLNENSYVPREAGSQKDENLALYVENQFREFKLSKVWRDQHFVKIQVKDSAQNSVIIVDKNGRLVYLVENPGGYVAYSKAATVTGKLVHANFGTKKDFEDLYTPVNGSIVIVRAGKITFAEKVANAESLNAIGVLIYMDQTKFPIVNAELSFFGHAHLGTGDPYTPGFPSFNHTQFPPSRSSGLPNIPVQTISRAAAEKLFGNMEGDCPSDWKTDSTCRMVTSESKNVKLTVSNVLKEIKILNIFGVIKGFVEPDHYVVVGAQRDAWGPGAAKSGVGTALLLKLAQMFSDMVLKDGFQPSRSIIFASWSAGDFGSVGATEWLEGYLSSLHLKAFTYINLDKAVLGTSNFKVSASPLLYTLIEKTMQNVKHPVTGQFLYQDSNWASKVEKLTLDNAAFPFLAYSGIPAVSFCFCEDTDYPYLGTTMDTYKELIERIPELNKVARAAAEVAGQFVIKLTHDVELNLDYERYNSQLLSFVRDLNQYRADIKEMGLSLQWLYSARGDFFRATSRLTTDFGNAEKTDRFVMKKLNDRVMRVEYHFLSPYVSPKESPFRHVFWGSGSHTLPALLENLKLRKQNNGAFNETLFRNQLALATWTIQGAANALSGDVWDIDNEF

In the examples that follow, each entry is paired with its recorded koff.
{"binder": "2/99 VH22/VL14 (antibody, V domains shown) VH: QSMQESGPGLVKPSQTLSLTCTVSGFSLSSYAMSWVRQHPGKGLEWIGYIWSGGSTDYASWAKSRVTISVDTSKNQVSLKLSSVTAADTAVYYCARRYGTSYPDYGDANGFDPWGQGTLVTVSS VL: DIVMTQSPDSLAVSLGERATINCKSSQSISSYLSWYQQKPGQRPKLLIYRASTLASGVPDRFSGSGSGTDFTLTISSLQAEDVAVYYCQQSYSSSNVDNTFGGGTKVEIK", "koff": "0.00112 s⁻¹"}
{"binder": "2/99 VH19/VL12 (antibody, V domains shown) VH: QSMQESGPGLVKPSQTLSLTCTVSGFSLSSYAMSWIRQHPGKGLEWIGYIWSGGSTDYAPSLKSRVTISVDTSKNQFSLKLSSVTAADTAVYYCARRYGTSYPDYGDANGFDPWGQGTLVTVSS VL: DIQMTQSPSSLSASVGDRVTITCRASQSISSYLAWYQQKPGKAPKLLIYRASTLASGVPSRFSGSRSGTDFTLTISSLQPEDFATYYCQQHYSSSNVDNTFGGGTKVEIK", "koff": "0.001 s⁻¹"}

Tell me the measured koff of 2/99 VH1/VL4 (antibody, V domains shown) VH: VQLVETGGGLIQPGGSLRLSCAASGFSLSSYAMSWVRQAPGKGLEWVGYIWSGGSTDYADSVKGRFTISRDNSKNTLYLQMNSLRAEDTAVYYCARRYGTSYPDYGDANGFDPWGQGTLVTVSS VL: AYQMTQSPSSLSASVGDRVTITCRASQSISSYLSWYQQKPGKAPKLLIYRASTLASGVPSRFSGSGSGTDFTLTISSLQPEDFATYYCQQSYSSSNVDNTFGGGTKVEIK , please.
0.00256 s⁻¹

Recorded values, source patent US20180291110A1.
